- Tested on: CLK2
- Design: species or system human, MV4-11 + K-562 + COLO205 + SK-N-BE2 + OVCAR-8
- condition-parameters: read-out: apparent Kd; compound concentrations:100 nM and 1000 nM (sheet 'Samples'); n = 1
measured-parameter: potency estimated from few doses
Number first, unit second: that is the form wanted.

Prompt line: What potency estimated from few doses value was documented for this molecule, Cn1cc(C2=C(c3cn(CCCSC(=N)N)c4ccccc34)C(=O)NC2=O)c2ccccc21 [RO0318220-000] ?
Response line: 434 nM

Prompt line: What potency estimated from few doses value was documented for this molecule, Cl.Cl.NCC(C(=O)Nc1cc(Br)c(-c2ccnc3[nH]ccc23)s1)c1ccccc1.NCC(C(=O)Nc1cc(Br)c(-c2ccnc3[nH]ccc23)s1)c1ccccc1 (centres unmarked) [GSK1269851A] ?
Response line: 730 nM

Prompt line: What potency estimated from few doses value was documented for this molecule, COc1cc(N2CCN(C(C)C)CC2)ccc1Nc1nc(Nc2ccc(F)cc2C(=O)NC[C@@H](O)CO)c2cc[nH]c2n1 [GSK1392956A] ?
Response line: 811 nM

Prompt line: What potency estimated from few doses value was documented for this molecule, COc1ccc2c(-c3ccnc(Nc4cccc(OC(F)(F)F)c4)n3)cnn2n1 [GW810372X] ?
Response line: 20.2 nM

Prompt line: What potency estimated from few doses value was documented for this molecule, CNC(=O)c1c(F)cccc1Nc1nc(Nc2cc3c(cc2OC)CCN3C(=O)CN(C)C)nc2[nH]ccc12 [GSK1838705] ?
Response line: 600 nM

====

- System: PKN3
- condition-parameters: read-out: Rep 1; hek293t cells
Hi there, I'd appreciate the recorded IC50 for every entry that follows.
Please respond with the number in µM and leave the unit unwritten.

Prompt line: Item: Cl.ON=C1CCc2cc(-c3nc(C4CCNCC4)[nH]c3-c3ccncc3)ccc21 [SB-614067-R] Test system: PKN3 Read-out: IC50 Value: ?
Response line: 19.1

Prompt line: Item: Fc1ccc(-c2c(-c3ccncc3)[nH]c3cccnc23)cc1 [RO1153853-000] Test system: PKN3 Read-out: IC50 Value: ?
Response line: 8.03

Prompt line: Item: Cc1cccc2c(-c3ccncn3)c(-c3ccc(F)cc3)nn12 [GW515532X] Test system: PKN3 Read-out: IC50 Value: ?
Response line: 78.8

====

- Test system: PKN3;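 further: NanoBRET target engagement in HEK293T cells transiently expressing full-length PKN3 with C-terminal NanoLuc, displacement of fluorescent tracer K5 (500 nM), BRET read after 2 h equilibration at 37 °C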
- condition-parameters: read-out: Rep 4; hek293t cells
pIC50: −log10 of the molar value.
Use Criterion met when the recorded pIC50 is no lower than 7; use Criterion not met when it is lower.

Prompt line: Answer whether pIC50 of CCOc1nccc2c1nc(-c1nonc1N)n2CC [SB-737198] is greater than or equal to 7.
Response line: Criterion not met

Prompt line: Answer whether pIC50 of CCn1c(-c2nonc2N)nc2c(C#CC(C)(C)O)nc(CN3CCCC3)cc21 [GSK1000163A] is greater than or equal to 7.
Response line: Criterion not met

Prompt line: Answer whether pIC50 of Cl.ON=C1CCc2cc(-c3nc(C4CCNCC4)[nH]c3-c3ccncc3)ccc21 [SB-614067-R] is greater than or equal to 7.
Response line: Criterion not met

Prompt line: Answer whether pIC50 of Fc1ccc(-c2c(-c3ccncc3)[nH]c3cccnc23)cc1 [RO1153853-000] is greater than or equal to 7.
Response line: Criterion not met

Prompt line: Answer whether pIC50 of CCn1c(-c2nonc2N)nc2c(C#CCN)ncc(OCCCN)c21.O=C(O)C(F)(F)F [GSK561866B] is greater than or equal to 7.
Response line: Criterion not met

Prompt line: Answer whether pIC50 of Cc1cccc2c(-c3ccncn3)c(-c3ccc(F)cc3)nn12 [GW515532X] is greater than or equal to 7.
Response line: Criterion not met

Prompt line: Answer whether pIC50 of CCn1c(-c2nonc2N)nc2c(C#CC(C)(C)O)nc(OC[C@@H](N)c3ccccc3)cc21 [GSK938890A] is greater than or equal to 7.
Response line: Criterion met

Prompt line: Answer whether pIC50 of CCn1c(-c2nonc2N)nc2c(-c3ccccc3)ncc(OCCCN)c21.CCn1c(-c2nonc2N)nc2c(-c3ccccc3)ncc(OCCCN)c21.O=C(O)C(F)(F)F.O=C(O)C(F)(F)F [GSK260205A] is greater than or equal to 7.
Response line: Criterion met
